system: P388 leukemia ip, CD2F1 mice, survival T/C; test: NCI In Vivo Anticancer Drug Screen. Data for tumor model P388 Leukemia (intraperitoneal) in CD2F1 (CDF1) mice; details: endpoint: median survival time; dose: 25.0 mg/kg/injection; schedule: Q04DX003 (ip); vehicle: saline; higher = longer survival
Toxic doses and inconclusive results are not listed.

| compound | T/C |
| --- | --- |
| O=C(O)CCCCCCC(=O)CCl | 110 % of control |
| C=C(CCCC)CNCCOC(=O)c1ccc([N+](=O)[O-])cc1 | 104 % of control |
| c1cc(-n2nnc3cnccc32)ccn1 | 100 % of control |
| C1=C\CCCCCCCC/1 | 104 % of control |
| Cn1cnc([N+](=O)[O-])c1[Se]c1ncnc2c1c(C#N)cn2C1OC(CO)C(O)C1O (stereo not given) | 116 % of control |

* * *

test system: P388 leukemia ip, CD2F1 mice, survival T/C; assay: NCI In Vivo Anticancer Drug Screen. Data for tumor model P388 Leukemia (intraperitoneal) in CD2F1 (CDF1) mice; details: endpoint: median survival time; dose: 6.25 mg/kg/injection; schedule: Q01DX005 (ip); vehicle: Klucel (hydroxypropylcellulose) (HPC); higher = longer survival
Toxic doses and inconclusive results are not listed.
Reported T/C values for a set of compounds

| mol | T/C |
| --- | --- |
| CC1=C[P+](c2ccccc2)(c2ccccc2)c2ccccc2O1 | 110 % of control |
| C[n+]1cc(-c2ccccc2)cc(-c2ccccc2)c1 | 109 % of control |
| O=C(NCCF)Oc1ccc([N+](=O)[O-])cc1 | 106 % of control |
| NS(=O)(=O)c1ccc(N=Nc2nc3[nH]c(=O)[nH]c(=O)c3[nH]2)cc1 | 106 % of control |

* * *

system: P388 leukemia ip, CD2F1 mice, survival T/C; experiment: NCI In Vivo Anticancer Drug Screen. Data for tumor model P388 Leukemia (intraperitoneal) in CD2F1 (CDF1) mice; conditions: endpoint: median survival time; dose: 25.0 mg/kg/injection; schedule: Q01DX001 (ip); vehicle: Klucel (hydroxypropylcellulose) (HPC)
Toxic doses and inconclusive results are not listed. Rule for the calls: active = survival T/C of 150% or more; inactive = T/C below 125% in these data.
Classes used: yes (1) for active, no (0) for inactive

| compound | experimentalSystem | category |
| --- | --- | --- |
| [Se]=P(c1ccccc1)(N1CCCCC1)N1CCCCC1 | P388 leukemia ip, CD2F1 mice, survival T/C | no (0) |
| Cc1ccc(NC(=S)NNC(=O)CN2C(=O)c3ccccc3C2=O)cc1 | P388 leukemia ip, CD2F1 mice, survival T/C | no (0) |
| [Cl][Pt+2][Cl].[NH-]CC([NH-])c1ccccc1 (centres undefined) | P388 leukemia ip, CD2F1 mice, survival T/C | yes (1) |
| CC1(C)CC(OP(=[Se])(c2ccccc2)c2ccccc2)CC(C)(C)N1O | P388 leukemia ip, CD2F1 mice, survival T/C | no (0) |

* * *

test system: P388 leukemia ip, CD2F1 mice, survival T/C; assay: NCI In Vivo Anticancer Drug Screen. Data for tumor model P388 Leukemia (intraperitoneal) in CD2F1 (CDF1) mice; details: endpoint: median survival time; dose: 400.0 mg/kg/injection; schedule: Q01DX001 (ip); vehicle: saline; higher = longer survival
Toxic doses and inconclusive results are not listed.
readoutType: T/C

| molecule | result |
| --- | --- |
| NC(Cc1ccc([N+](=O)[O-])cc1)C(=O)O (centres undefined) | 109 % of control |
| Cc1ocnc1Cc1ccc(O)c(O)c1 | 98 % of control |
| C=C1CC2(CC3C4CC3CC2C4)OC1=O (centres undefined) | 100 % of control |
| O=P(O)(O)Oc1ccc(NCCO)cc1 | 100 % of control |

* * *

Reported T/C values for a set of compounds
system: P388 leukemia ip, CD2F1 mice, survival T/C; experiment: NCI In Vivo Anticancer Drug Screen. Data for tumor model P388 Leukemia (intraperitoneal) in CD2F1 (CDF1) mice; details: endpoint: median survival time; dose: 200.0 mg/kg/injection; schedule: Q04DX003 (ip); vehicle: Klucel (hydroxypropylcellulose) (HPC); higher = longer survival
Toxic doses and inconclusive results are not listed.
readoutType: T/C

| compound | result |
| --- | --- |
| CCn1c2ccccc2c2ccc(N=Nc3ccccc3)cc21 | 100 % of control |
| CN(C)c1ccc(C(=O)C2CCCC(C)(C)C2)cc1 (stereo not given) | 99 % of control |
| Cc1ccc(S(=O)(=O)Nn2nnc(-c3ccccc3)n2)cc1 | 102 % of control |
| COC(=O)c1ccc(SCC2(CCN3C(=O)c4ccccc4C3=O)OCCO2)cc1 | 96 % of control |
| c1ccc(C2=NNC(c3ccccc3)=NN2)cc1 | 97 % of control |
| COc1ccc(N2CCN(CC(O)COc3cc4c(c5c3CCCC5)CCCC4)CC2)cc1 (stereo not given) | 94 % of control |
| O=[N+]([O-])c1ccc(C(Cl)C2(Br)C=c3ccccc3=C2)cc1 (stereo not given) | 100 % of control |
| O=C(O)C1=Cc2ccccc2OC1 | 107 % of control |
| CP1(=S)CC(Br)=C2CCCCC21 (stereo not given) | 106 % of control |
| COc1ccc([N+](=O)[O-])cc1NOC(C)=O | 119 % of control |
| CCCCC(=O)CCCCCCCCC(O)CC(=O)OCC (stereo not given) | 103 % of control |
| O=C1OCCOCCOCCOCCOCCOCCOC(=O)c2cccc1n2 | 100 % of control |
| CC(=O)NC1CC(=O)N(c2ccc(Cl)cc2)C1=O (stereo not given) | 101 % of control |
| COC(=O)C1C(C)C2CCCCC2CC1(C)O (stereo not given) | 112 % of control |
| Cc1ccc(NC(=O)C(C)C)cc1 | 101 % of control |

* * *

tested on: P388 leukemia ip, CD2F1 mice, survival T/C; experiment: NCI In Vivo Anticancer Drug Screen. Data for tumor model P388 Leukemia (intraperitoneal) in CD2F1 (CDF1) mice; settings: endpoint: median survival time; dose: 200.0 mg/kg/injection; schedule: Q01DX001 (ip); vehicle: saline with Tween-80
Toxic doses and inconclusive results are not listed. The calls were made as follows: active = survival T/C of 150% or more; inactive = T/C below 125% in these data.
Classes used: True = active, False = inactive

| mol | category |
| --- | --- |
| ClCCN(CCCN(CCCl)c1ccccc1)c1ccccc1 | True |
| O=Cc1cc2ccc3ccccc3c2[nH]1 | False |
| COc1cc(OC)c2c(=O)c3cccc([N+](=O)[O-])c3n(C)c2c1 | False |
| CSC(/C=C/c1ccccc1)=Nc1ccccc1 | False |
| CCOC(=O)/C(C#N)=C\c1c(OC(C)=O)cn2c(C)cccc12 | False |
| COC(=O)c1cc(C)n(Cc2ccccc2)c1 | False |

* * *

Reported T/C values for a set of molecules
test system: P388 leukemia ip, CD2F1 mice, survival T/C; experiment: NCI In Vivo Anticancer Drug Screen. Data for tumor model P388 Leukemia (intraperitoneal) in CD2F1 (CDF1) mice; settings: endpoint: median survival time; dose: 240.0 mg/kg/injection; schedule: Q01DX005 (ip); vehicle: saline with Tween-80; higher = longer survival
Toxic doses and inconclusive results are not listed.
readoutType: T/C

| molecule | result |
| --- | --- |
| CCOc1ccc(N2C(=O)C(=O)C(C#N)(c3nc4ccccc4o3)C(=O)C2=O)cc1 | 105 % of control |
| O=S(=O)(O/C(=C(\OS(=O)(=O)C(F)(F)C(F)(F)C(F)(F)C(F)(F)F)c1ccccc1)c1ccccc1)C(F)(F)C(F)(F)C(F)(F)C(F)(F)F | 99 % of control |
| NC(N)=NS(=O)(=O)c1ccc(NCc2c3ccccc3nc3cc(Cl)ccc23)cc1 | 116 % of control |
| O=C(O)Cc1c(-c2noc(-c3ccccc3)c2CC(=O)O)noc1-c1ccccc1 | 108 % of control |
| COc1ccc(C2C3=C(CCCC3=O)Oc3cc4c(cc32)OCO4)c(OC)c1 (stereo unspecified) | 90 % of control |
| O=S(=O)(Nc1ccnn1-c1ccccc1)c1ccc(N=Cc2c3ccccc3nc3cc(Cl)ccc23)cc1 | 102 % of control |
| CCOC(=O)c1ccc(NC(=O)Oc2cc(=O)oc3ccccc23)cc1 | 99 % of control |
| CCc1cccc(CC)c1NC(=O)c1ccccc1Br | 112 % of control |
| CC(C)(C)C1=NN=C(C(C)(C)C)CSC1 | 104 % of control |
| COC(=O)C(=O)C(C(=O)C(c1ccccc1)c1ccccc1)c1nc2n(c1O)/C(=N/C(=O)Nc1ccc(Cl)cc1)N=N2 (stereo unspecified) | 99 % of control |
| Cc1cc(C)cc(C(=O)NC(c2ccncc2)C2N=C(c3ccccc3)OC2=O)c1 (stereo unspecified) | 94 % of control |
| CSc1nnc(CCC(=O)Nc2cc(Cl)ccc2Cl)o1 | 97 % of control |
| COc1ccc2c(c1)CCc1c-2nc(N)nc1-c1nc(N)nc2c1CCc1cc(OC)ccc1-2 | 100 % of control |
| O=C(/C=C/c1ccc(Cl)cc1)NC1C=Nc2ccc([N+](=O)[O-])cc2NC1=O (stereo unspecified) | 98 % of control |
| Nc1ccc(Cl)cc1C(=O)c1ccccc1Cl | 90 % of control |
| CC(C)=Cc1cc(-c2cc(C=C(C)C)[nH]n2)n[nH]1 | 102 % of control |
| O=C1c2ccccc2-c2c(Br)cc(Br)c(NC(=O)C(Cl)Cl)c21 | 92 % of control |
| Nc1ccc2c(c1)Oc1ccc(N)cc1O2 | 106 % of control |
| COC(=O)C1(C2(C(=O)OC)NC(=S)NC(=O)C2C#N)CCCC1=O (stereo unspecified) | 105 % of control |
| CCn1c(=O)c(C#N)c2n(CC)c3cc(C)c(C)cc3n2c1=O | 86 % of control |
| COC(=O)c1ccc(N)c2c(N)ccc(C(=O)OC)c12 | 97 % of control |
